Target: human PAD4 (hPAD4) (Homo sapiens (Human))
Assay: RFMS Human PAD4 Functional Assay 1
Settings: RFMS assay 1; 5 nM hPAD4, 250 μM BAEE substrate, 50 μM calcium, 37° C.
Protocol: RFMS Human PAD4 Functional Assay 1: Compounds were solubilized in 100% DMSO to achieve all) mM compound concentration. Compound stock solutions were stored at RT. A series of dilutions were prepared in DMSO and mixed 8 times with 20 μL mixing volume. Final top concentration of compound in the assay is 50 μM. […] MRM transition of product and internal standard were monitored at m/z 424.5 to 350.4 and m/z 293 to 247 respectively. […]
IC50 values for the compounds below.
Please respond with the number in nM and leave the unit unwritten.

The cases that follow already have their IC50 on record.
[[record]]
compound = "Cc1c(-c2cc3cccc(C4CCN(C(=O)[C@@H]5CCC[C@H](O)C5)CC4)c3n2CC2CC2)nn2cc(C(=O)N3C[C@H](N)C[C@@H](F)C3)ccc12 [Example 449]"
datavalue = 50

[[record]]
compound = "COc1cc(C(=O)N2CCC[C@@H](N)C2)cn2nc(-c3cc4ccnc(OCCn5ccnc5)c4n3CC3CC3)c(C)c12 [Example 598]"
datavalue = 20


Consider now this further compound.
(Q) Query the reported IC50 for human PAD4 (hPAD4) (Homo sapiens (Human)); item: Cc1c(-c2cc3cccc(C4CN(C(=O)[C@H]5CCC[C@@H](O)C5)C4)c3n2CC2CC2)nn2cc(C(=O)N3CCC[C@@H](N)C3)ccc12 [Example 534]
(A) 440

----------
Target: human PAD4 (hPAD4) (Homo sapiens (Human), UniProt Q9UM07)
Sequence (Q9UM07 whole entry): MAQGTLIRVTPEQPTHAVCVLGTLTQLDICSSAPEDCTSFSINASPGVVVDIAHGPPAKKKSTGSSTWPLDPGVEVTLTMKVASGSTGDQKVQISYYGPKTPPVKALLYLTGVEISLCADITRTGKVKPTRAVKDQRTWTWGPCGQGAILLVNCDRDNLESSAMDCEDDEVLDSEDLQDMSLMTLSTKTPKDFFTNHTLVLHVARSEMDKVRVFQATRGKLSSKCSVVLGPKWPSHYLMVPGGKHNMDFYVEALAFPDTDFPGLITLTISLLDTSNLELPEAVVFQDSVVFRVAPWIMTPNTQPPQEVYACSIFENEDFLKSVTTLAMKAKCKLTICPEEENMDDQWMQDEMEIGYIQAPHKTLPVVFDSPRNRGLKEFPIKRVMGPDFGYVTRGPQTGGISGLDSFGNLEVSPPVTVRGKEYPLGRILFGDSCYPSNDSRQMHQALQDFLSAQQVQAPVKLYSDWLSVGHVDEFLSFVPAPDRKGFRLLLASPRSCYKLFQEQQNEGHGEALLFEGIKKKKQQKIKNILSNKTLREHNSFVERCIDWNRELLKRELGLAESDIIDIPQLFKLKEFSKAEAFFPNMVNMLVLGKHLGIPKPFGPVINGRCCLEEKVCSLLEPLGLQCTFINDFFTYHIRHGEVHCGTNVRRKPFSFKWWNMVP
Assay: RFMS Human PAD4 Functional Assay 1
Details: RFMS assay 1; 5 nM hPAD4, 250 μM BAEE substrate, 50 μM calcium, 37° C.
Experimental: RFMS Human PAD4 Functional Assay 1: Compounds were solubilized in 100% DMSO to achieve all) mM compound concentration. Compound stock solutions were stored at RT. A series of dilutions were prepared in DMSO and mixed 8 times with 20 μL mixing volume. Final top concentration of compound in the assay is 50 μM. […] MRM transition of product and internal standard were monitored at m/z 424.5 to 350.4 and m/z 293 to 247 respectively. […]
reportedProperty: IC50

The cases that follow already have their IC50 on record.
[[record]]
molecule = "CC(=O)N1CC(c2cccc3cc(-c4nn5cc(C(=O)N6C[C@H](N)C[C@@H](F)C6)ccc5c4C)n(CC4CC4)c23)C1 [Example 548]"
datavalue = "170 nM"

[[record]]
molecule = "Cc1c(-c2cc3ccc(-c4ccc5c(c4)C(=O)NC5)cc3n2CC2CC2)nn2cc(C(=O)N3CC4CCC3[C@@H]4N)ccc12 (stereo partly drawn) [Example 89]"
datavalue = "48 nM"

[[record]]
molecule = "Cc1c(-c2cc3ccc(-c4ccc5c(c4)C(=O)NC5)nc3n2CC2CC2)oc2cc(C(=O)N3CC4CCC3[C@@H]4N)ccc12 (stereo partly drawn) [Example 166]"
datavalue = "56 nM"

[[record]]
molecule = "Cc1c(-c2cc3cccc(OCC4CNC(=O)C4)c3n2CC2CC2)nn2cc(C(=O)N3CCC[C@@H](N)C3)cc(F)c12 (single isomer, unassigned) [Example 571]"
datavalue = "30 nM"

[[record]]
molecule = "Cc1c(-c2cc3ccc(-c4cccc(O)c4F)cc3n2CC2CC2)nn2cc(C(=O)N3CC4CCC3[C@@H]4N)cc(F)c12 (stereo partly drawn) [Example 59]"
datavalue = "291 nM"


(Q) Which value of IC50 has been reported for Cc1c(-c2cc3ccc(-c4cccc(CO)c4)cc3n2CC2CC2)nn2cc(C(=O)N3C[C@H](N)C[C@@H](F)C3)ccc12 [Example 371] in the records?
(A) 1070 nM

----------
biological target: human PAD4 (hPAD4) (Homo sapiens (Human)); test: RFMS Human PAD4 Functional Assay 1; settings: RFMS assay 1; 5 nM hPAD4, 250 μM BAEE substrate, 50 μM calcium, 37° C.
reportedProperty: log10 of IC50 (log10 of the value in nM)
A difference of one corresponds to tenfold IC50; all values are log10 with IC50 in nM.

[[record]]
compound = "Cc1c(-c2cc3cc(F)cc(C4CCN(C(=O)C5CCCCO5)CC4)c3n2CC2CC2)nn2cc(C(=O)N3C[C@H](N)C[C@@H](F)C3)ccc12 (mixture of isomers) [Example 509]"
datavalue = 2.54

[[record]]
compound = "COc1cc(C(=O)N2CCC[C@@H](N)C2)cn2nc(-c3cc4cccc(OCCn5cc(N)cn5)c4n3CC3CC3)c(C)c12 [Example 558]"
datavalue = 2.00

[[record]]
compound = "Cc1c(-c2cc3ccc(-c4cnn(C(C)C)c4)cc3n2CC2CC2)oc2cc(C(=O)N3CC4CCC3[C@@H]4N)ccc12 (stereo partly drawn) [Example 180]"
datavalue = 2.34


(Q) Which value of log10 of IC50 has been reported for Cc1c(-c2cc3ccc(-c4cccc(CNS(C)(=O)=O)c4)cc3n2CC2CC2)nn2cc(C(=O)N3C[C@H](N)C[C@@H](F)C3)ccc12 [Example 367] in the records?
(A) 3.00

(Q) And what about the compound Cc1c(-c2cc3cccc(C4CCN(C(=O)[C@H]5CC[C@H](O)CC5)CC4)c3n2CC2CC2)nn2cc(C(=O)N3CCC[C@@H](N)C3)ccc12 [Example 443] ?
(A) 2.11

(Q) And what about the compound Cc1c(-c2cc3ccc(-c4ccc5c(c4)CNC5=O)nc3n2CC2CC2)oc2cc(C(=O)N3CC4CCC3[C@@H]4N)ccc12 (stereo partly drawn) [Example 168] ?
(A) 1.67

(Q) And what about the compound COCC(=O)N1CCC(c2cc(F)cc3cc(-c4nn5cc(C(=O)N6C[C@H](N)C[C@@H](F)C6)ccc5c4C)n(CC4CC4)c23)CC1 [Example 503] ?
(A) 1.78

----------
Molecular target: UniProt Q9UM07
Experiment: RFMS Human PAD4 Functional Assay 1
Details: RFMS assay 1; 5 nM hPAD4, 250 μM BAEE substrate, 50 μM calcium, 37° C.
Experimental: RFMS Human PAD4 Functional Assay 1: Compounds were solubilized in 100% DMSO to achieve all) mM compound concentration. Compound stock solutions were stored at RT. A series of dilutions were prepared in DMSO and mixed 8 times with 20 μL mixing volume. Final top concentration of compound in the assay is 50 μM. […] MRM transition of product and internal standard were monitored at m/z 424.5 to 350.4 and m/z 293 to 247 respectively. […]
pIC50: −log10 of the molar value.
Quick rule: pIC50 of at least 7 means rule met, below that means rule not met.

[[record]]
compound = "Cc1c(O)cccc1-c1ccc2cc(-c3nn4cc(C(=O)N5CCC[C@@H](N)C5)cc(F)c4c3C)n(CC3CC3)c2n1"
measurementtarget = "UniProt Q9UM07"
qualitativelabel = "rule not met"

[[record]]
compound = "COc1cc(C(=O)N2C[C@H](N)C[C@@H](F)C2)cc2sc(-c3cc4ccc(N5CCC(OC)CC5)nc4n3CC3CC3)c(C)c12"
measurementtarget = "UniProt Q9UM07"
qualitativelabel = "rule not met"

[[record]]
compound = "Cc1c(-c2cc3ccc(-c4cc(F)c(O)c(F)c4)nc3n2CC2CC2)nn2cc(C(=O)N3CC4CCC3[C@@H]4N)ccc12 (stereo partly drawn)"
measurementtarget = "UniProt Q9UM07"
qualitativelabel = "rule not met"

[[record]]
compound = "COc1cc(C(=O)N2CC3CCC2[C@@H]3N)cn2nc(-c3cc4ccc(C)cc4n3CC3CC3)c(C)c12 (stereo partly drawn)"
measurementtarget = "UniProt Q9UM07"
qualitativelabel = "rule met"

[[record]]
compound = "COCC(=O)N1CC(c2cccc3cc(-c4nn5cc(C(=O)N6C[C@H](N)C[C@@H](F)C6)cc(OC)c5c4C)n(CC4CC4)c23)C1"
measurementtarget = "UniProt Q9UM07"
qualitativelabel = "rule met"

[[record]]
compound = "Cc1c(-c2cc3cccc(OC[C@@H]4CCC(=O)N4)c3n2CC2CC2)nn2cc(C(=O)N3CCC[C@@H](N)C3)cc(F)c12"
measurementtarget = "UniProt Q9UM07"
qualitativelabel = "rule met"

[[record]]
compound = "Cc1c(-c2cc3cccc(C4CCN(C(=O)[C@@H]5CCC[C@H](O)C5)CC4)c3n2CC2CC2)nn2cc(C(=O)N3CCC[C@@H](N)C3)ccc12"
measurementtarget = "UniProt Q9UM07"
qualitativelabel = "rule met"

[[record]]
compound = "COc1cc(C(=O)N2CCC[C@@H](N)C2)cn2nc(-c3cc4ccc(N5CCC(N(C)C(C)=O)CC5)cc4n3CC3CC3)c(C)c12 [Example 253]"
measurementtarget = "UniProt Q9UM07"
qualitativelabel = "rule not met"


We now examine a further compound.
(Q) Reported pIC50 reaches at least 7 for COc1cc(C(=O)N2CCC[C@@H](N)C2)cn2nc(-c3cc4cccc(C5CCN(C(=O)C6CCCO6)CC5)c4n3CC3CC3)c(C)c12 (mixture of isomers) ?
(A) rule not met
